System: IFNγ-induced NO production in RAW 264.7 cells
Test: Nitric Oxide Suppression Assay (IFNγ-induced NO, Griess nitrite readout)
Type: cell-based, mouse
Details: Mus musculus, RAW264.7, Table 2; RAW 264.7 cells, 2 h pretreatment, 20 ng/mL interferon gamma 24 h; read-out: Avg NO IC50 (nM) (Mean ± SD)

- MOLECULAR_STRING: "COC(=O)CC[C@]12CC[C@@H](C)[C@H](C)[C@H]1[C@H]1C(=O)C=C3[C@@]4(C)C=C(C#N)C(=O)C(C)(C)[C@@H]4CC[C@@]3(C)[C@]1(C)CC2"
  IC50: "14.8 nM"
- MOLECULAR_STRING: "C[C@@H]1[C@H]2[C@H]3C(=O)C=C4[C@@]5(C)C=C(C#N)C(=O)C(C)(C)[C@@H]5CC[C@@]4(C)[C@]3(C)CC[C@@]2(CN)CC[C@H]1C"
  IC50: "26 nM"
- MOLECULAR_STRING: "C[C@@H]1[C@H]2[C@H]3C(=O)C=C4[C@@]5(C)C=C(C#N)C(=O)C(C)(C)[C@@H]5CC[C@@]4(C)[C@]3(C)CC[C@@]2(/C=N/O)CC[C@H]1C"
  IC50: "7.91 nM"
- MOLECULAR_STRING: "C[C@@H]1[C@H]2[C@H]3C(=O)C[C@@H]4[C@@]5(C)C=C(C#N)C(=O)C(C)(C)[C@@H]5CC[C@@]4(C)[C@]3(C)CC[C@@]2(CNC(=O)OC(C)(C)C)CC[C@H]1C"
  IC50: "57.4 nM"
- MOLECULAR_STRING: "CNC(=O)CC[C@]12CC[C@@H](C)[C@H](C)[C@H]1[C@H]1C(=O)C=C3[C@@]4(C)C=C(C#N)C(=O)C(C)(C)[C@@H]4CC[C@@]3(C)[C@]1(C)CC2"
  IC50: "2.43 nM"
